These measurements were taken from paper PMC5540273.

# Tested on: p38-delta;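 further: KINOMEscan kinase panel screen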
# stated_conditions: concentration: 1 μM, replicates: in singlicate; n = 1
Examples of molecules with documented %Inh follow.
Just the number in %, nothing appended.

smiles_record: Nc1nc(-c2ccccn2)c(-c2ccnc3ccccc23)s1
assay_value: 29

smiles_record: CC(C)(C)c1ccc(-n2cnc3c(N)ncnc32)cc1
assay_value: 11

smiles_record: CN1c2ccc(-c3ccc(C(=O)NCCO)cc3)cc2-c2[nH]ncc2S1(=O)=O
assay_value: 9

smiles_record: FC(F)(F)c1ccc(-c2nn3ncccc3c2-c2ccnc(Nc3cccc(C(F)(F)F)c3)n2)cc1
assay_value: 3

stdin: State its %Inh for this molecule: COc1cc2ncnc(Nc3ccc(OCc4ccccc4Br)c(Cl)c3)c2cc1OC.Cl
stdout: 54

stdin: Answer with the recorded %Inh of C[C@@H]1CCN(C(=O)CO)C[C@@H]1N(C)c1ncnc2[nH]ccc12 only.
stdout: 13

stdin: In one line, give reported %Inh of the entry Cn1cc(-c2ccc3c(c2)CCN3C(=O)Cc2cccc(C(F)(F)F)c2)c2c(N)ncnc21 .
stdout: 20

stdin: Fill in %Inh for record Cl.Fc1ccccc1COc1ccc(Nc2ncnc3ccc(-c4nnc(C(F)(F)F)o4)cc23)cc1Cl
stdout: 29

stdin: Provide %Inh value for the following molecule: CNc1nccc(-c2c(-c3ccc(F)cc3)ncn2CCCN2CCOCC2)n1
stdout: 0
